Data provenance: paper PMC7730549

- test target: His-tagged Bcl-2 protein (Homo sapiens, UniProt P10415)
- Sequence (P10415 whole entry): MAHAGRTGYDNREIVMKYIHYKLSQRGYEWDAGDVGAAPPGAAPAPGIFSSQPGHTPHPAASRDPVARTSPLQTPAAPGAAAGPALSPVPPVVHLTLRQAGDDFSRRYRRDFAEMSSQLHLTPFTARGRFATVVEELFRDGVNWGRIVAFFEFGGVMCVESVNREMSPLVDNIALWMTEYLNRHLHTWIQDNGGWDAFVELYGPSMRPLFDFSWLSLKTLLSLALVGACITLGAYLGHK
observation type: pIC50
# pIC50 = -log10(concentration in molar units)

Problem: Query (compound): `FC(F)(F)c1ccc(-c2nnc(-c3c[nH]c4ccccc34)o2)cc1` ; field requested: pIC50
Solution: 6.48
